- System under test: FXR (Homo sapiens, UniProt Q96RI1)
- Construct: host or cells: CHO cells
- Sequence (Q96RI1 whole entry): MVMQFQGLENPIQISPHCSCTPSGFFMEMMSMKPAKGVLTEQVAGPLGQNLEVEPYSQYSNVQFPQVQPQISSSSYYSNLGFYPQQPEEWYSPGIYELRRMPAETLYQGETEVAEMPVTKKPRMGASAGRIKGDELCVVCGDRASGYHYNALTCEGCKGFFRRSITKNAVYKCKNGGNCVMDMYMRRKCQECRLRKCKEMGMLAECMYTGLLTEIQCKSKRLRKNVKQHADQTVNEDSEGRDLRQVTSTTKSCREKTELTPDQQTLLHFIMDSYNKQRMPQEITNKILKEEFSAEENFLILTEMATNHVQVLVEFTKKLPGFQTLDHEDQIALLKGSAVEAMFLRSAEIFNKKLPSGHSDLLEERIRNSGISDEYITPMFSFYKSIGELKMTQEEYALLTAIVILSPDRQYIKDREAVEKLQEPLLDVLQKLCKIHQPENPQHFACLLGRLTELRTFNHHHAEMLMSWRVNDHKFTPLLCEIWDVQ
- Protocol text: CHO cell-based FXR luciferase reporter assay (Indigo Biosciences)
- Applied conditions: 1 µM; % vs OCA 1 µM as 100%
FXR Efficacy (%) (1 µM) values for the compounds below.
Reply with just the number (in %).

[
  {
    "Compound": "Cc1cnccc1C(=O)N(CC12CCC(c3ccc4c(c3)CCO4)(CC1)CC2)c1cc(Cl)cc(Cl)c1 [Compound 20m]",
    "Unit abbrev": "%",
    "FXR Efficacy (%) (1 µM)": 91.5
  }
]

Name the recorded FXR Efficacy (%) (1 µM) of the item CN(C)c1ccc(-c2ccc(CN(C(=O)C3CCC(O)CC3)c3cc(Cl)cc(Cl)c3)cc2)cc1 (centres unmarked) [Compound 13ae] in your answer.
101.4

Given COc1ccc([C@H]2CC[C@H](CN(C(=O)c3ccncc3C)c3cc(Cl)cc(Cl)c3)CC2)cc1C [Compound 20d] , respond with its FXR Efficacy (%) (1 µM).
55.2
